test: Chromatographic hydrophobicity index, log D of the compound at pH 7.4 by HPLC analysis; format: physicochemical; conditions: buffer
Field: chromatographic logD. Provide a value for each of the compounds that follow.
Numbers only.

smiles_data=CC(=O)N[C@H](C(=O)N1C[C@H](O)C[C@H]1C(=O)NCc1ccc(-c2scnc2C)cc1)C(C)(C)C observable="chromatographic logD" endpoint_result=0.9
smiles_data=Cc1ncsc1-c1ccc(CNC(=O)[C@@H]2C[C@@H](O)CN2C(=O)[C@@H](NC(=O)C2COC2)C(C)(C)C)cc1 observable="chromatographic logD" endpoint_result=0.71

// input: 5 compounds below; output: chromatographic logD for each
1. CC(=O)NC1(C(=O)N[C@H](C(=O)N2C[C@H](O)C[C@H]2C(=O)NCc2ccc(-c3scnc3C)cc2)C(C)(C)C)CC1
2. Cc1ncsc1-c1ccc(CNC(=O)[C@@H]2C[C@@H](O)CN2C(=O)[C@@H](NC(=O)C2CCC2)C(C)(C)C)cc1
3. CC(=O)C1(C(=O)N[C@H](C(=O)N2C[C@H](O)C[C@H]2C(=O)NCc2ccc(-c3scnc3C)cc2)C(C)(C)C)CC1
4. Cc1ncsc1-c1ccc(CNC(=O)[C@@H]2C[C@@H](O)CN2C(=O)[C@@H](NC(=O)C2CC2)C(C)(C)C)cc1
5. Cc1ncsc1-c1ccc(CNC(=O)[C@@H]2C[C@@H](O)CN2C(=O)[C@@H](NC(=O)C2(C#N)CC2)C(C)(C)C)cc1

Output:
1: 0.61; 2: 1.3; 3: 1.34; 4: 1.14; 5: 1.4

// input: 2 compounds below; output: chromatographic logD for each
1. Cc1ncsc1-c1ccc(CNC(=O)[C@@H]2C[C@@H](O)CN2C(=O)[C@@H](NC(=O)C2(F)CC2)C(C)(C)C)cc1
2. Cc1ncsc1-c1ccc(CNC(=O)[C@@H]2C[C@@H](O)CN2C(=O)[C@@H](NC(=O)CO)C(C)(C)C)cc1

Output:
1.63
0.65
